# Tested on: rGABA-gated Cl− channel
# Assay Comment: GABA-Gated Cl Channel Antagonist Radioligand Binding Assay
# Parameters: species or system rat
# Experimental Parameters: 10 μM single point, [35S]-TBPS, cerebral cortex membrane homogenates
Experimental Readout: rGABA-gated Cl− channel % inh @10 μM (%)
Give the number; % is assumed, so skip it.

Field: example entries. Status: answers known.
CN1CCC(Oc2ccc(N3C(=S)N(c4cnc(C#N)c(C(F)F)c4)C(=O)C34CCC4)cc2)CC1 : 20.4
N#Cc1ncc(N2C(=O)C3(CCC3)N(c3ccc(OC4CC5(CNC5)C4)cc3)C2=S)cc1C(F)(F)F : 15.3
Cc1cc(N2C(=O)C3(CCC3)N(c3ccc(OC4CCN(CCO)CC4)nc3)C2=S)cnc1C#N : 2.3

# returns recorded rGABA-gated Cl− channel % inh @10 μM (system: rGABA-gated Cl− channel) for N#Cc1ncc(N2C(=O)C3(CCC3)N(c3ccc(OC4CCCNCC4)cc3)C2=S)cc1C(F)(F)F (stereo not drawn)
53.6

# returns recorded rGABA-gated Cl− channel % inh @10 μM (system: rGABA-gated Cl− channel) for N#Cc1ncc(N2C(=O)C3(CCC3)N(c3ccc(OC4CCC(N)CC4)cc3)C2=S)cc1C(F)(F)F (stereo not drawn)
34.9

# returns recorded rGABA-gated Cl− channel % inh @10 μM (system: rGABA-gated Cl− channel) for CC1COC(COc2ccc(N3C(=S)N(c4cnc(C#N)c(C(F)(F)F)c4)C(=O)C34CCC4)cc2)CN1 (stereo not drawn)
36.7

# returns recorded rGABA-gated Cl− channel % inh @10 μM (system: rGABA-gated Cl− channel) for "CCOC(=O)N1CCN(C(=O)c2ccc(N3C(=S)N(c4cnc(C#N)c(C(F)(F)F)c4)C(=O)C34CCC4)cc2)CC1"
79.0

# returns recorded rGABA-gated Cl− channel % inh @10 μM (system: rGABA-gated Cl− channel) for N#Cc1ncc(N2C(=O)C3(CCC3)N(c3ccc(OC4CC5CCC(N5)C4F)cc3)C2=S)cc1C(F)(F)F (stereo not drawn)
74.4

# returns recorded rGABA-gated Cl− channel % inh @10 μM (system: rGABA-gated Cl− channel) for CN1C2CCC1C(F)C(Oc1ccc(N3C(=S)N(c4cnc(C#N)c(C(F)(F)F)c4)C(=O)C34CCC4)cc1)C2 (stereo not drawn)
91.0

# returns recorded rGABA-gated Cl− channel % inh @10 μM (system: rGABA-gated Cl− channel) for "N#Cc1ncc(N2C(=O)C3(CCC3)N(c3ccc(OC4CCN(CCO)CC4)nc3)C2=S)cc1C(F)(F)F"
13.0

# returns recorded rGABA-gated Cl− channel % inh @10 μM (system: rGABA-gated Cl− channel) for N#Cc1ncc(N2C(=O)C3(CCC3)N(c3ccc(OC4CCCO4)cc3)C2=S)cc1C(F)(F)F (stereo not drawn)
2.8

# returns recorded rGABA-gated Cl− channel % inh @10 μM (system: rGABA-gated Cl− channel) for "C[N@+]1([O-])CC[C@@H](Oc2ccc(N3C(=S)N(c4cnc(C#N)c(C(F)(F)F)c4)C(=O)C34CCC4)cc2)CC1"
47.9

# returns recorded rGABA-gated Cl− channel % inh @10 μM (system: rGABA-gated Cl− channel) for "CN1CCC(n2ncc3cc(N4C(=S)N(c5cnc(C#N)c(C(F)(F)F)c5)C(=O)C45CCC5)ccc32)CC1"
20.6

# returns recorded rGABA-gated Cl− channel % inh @10 μM (system: rGABA-gated Cl− channel) for "N#Cc1ncc(N2C(=O)C3(CCC3)N(c3ccc4nn(C5CCNCC5)cc4c3)C2=S)cc1Cl"
36.7

# returns recorded rGABA-gated Cl− channel % inh @10 μM (system: rGABA-gated Cl− channel) for "CC(=O)N1CCC(n2ncc3cc(N4C(=S)N(c5cnc(C#N)c(C(F)(F)F)c5)C(=O)C45CCC5)ccc32)CC1"
97.4
